- Tested On: Neutrophil elastase (Homo sapiens) (UniProt P08246)
- Sequence (whole entry): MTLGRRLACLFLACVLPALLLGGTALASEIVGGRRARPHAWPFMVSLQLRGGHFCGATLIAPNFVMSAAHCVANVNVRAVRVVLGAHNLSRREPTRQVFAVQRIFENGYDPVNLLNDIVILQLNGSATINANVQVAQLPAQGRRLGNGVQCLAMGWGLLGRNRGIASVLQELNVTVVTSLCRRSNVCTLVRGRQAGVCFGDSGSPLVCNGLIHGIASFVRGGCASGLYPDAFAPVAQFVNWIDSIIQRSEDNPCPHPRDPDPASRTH
- Method Description: In vitro inhibition of Human Leukocyte Elastase enzyme in whole blood stimulated with A-23187 (at dose 3 uM)
- Assay type: functional, tissue-based
Label 1.0 when inhibition is at or above 50%; anything below gets 0.0.

# check: inhibition of CCC[C@@H](NC(=O)N1C(=O)C(CC)(CC)[C@@H]1Oc1ccc(CP(=O)(O)O)cc1)c1ccc(C)cc1 is greater than or equal to 50% 1.0

# check: inhibition of CCC[C@@H](NC(=O)N1C(=O)C(CC)(CC)[C@@H]1Oc1ccc(CP(C)(=O)O)cc1)c1ccc(C)cc1 is greater than or equal to 50% 1.0

# check: inhibition of CCC[C@@H](NC(=O)N1C(=O)C(CC)(CC)[C@@H]1Oc1ccc(CP(=O)(O)c2ccccc2)cc1)c1ccc(C)cc1 is greater than or equal to 50% 0.0

# check: inhibition of CCC[C@@H](NC(=O)N1C(=O)C(CC)(CC)[C@@H]1Oc1ccc(CP(=O)(OCC)OCC)cc1)c1ccc(C)cc1 is greater than or equal to 50% 1.0

# check: inhibition of C=CCP(=O)(O)Cc1ccc(O[C@@H]2N(C(=O)N[C@H](CCC)c3ccc(C)cc3)C(=O)C2(CC)CC)cc1 is greater than or equal to 50% 0.0
